For each of the sequences below, state its protein stability index.
Experiment: protein stability index of a GFP-peptide fusion (GPS, HEK-293T) (PSI 1-6); higher = more stable;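 also: 24-mer peptide tiles fused after GFP, lentivirally expressed, FACS-sorted into six equal bins by GFP/DsRed ratio, decoded by Illumina sequencing, PSI is the read-weighted mean bin number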
Details: treatment: DMSO; c terminus: a fixed tail appended
Give bare numbers.

// worked examples, protein stability index included
[
  {
    "sequence.record": "NTLVCNGLQNCVYPWDENHCKEKR [NETO1]",
    "protein stability index": 4.21
  },
  {
    "sequence.record": "GPSRSRHRRRSRERGPYRTRKHAH [CLK3]",
    "protein stability index": 4.92
  },
  {
    "sequence.record": "KRRANQKSSAQGPIPWFLPESRSL [PPEF2]",
    "protein stability index": 3.49
  },
  {
    "sequence.record": "QEAVPLGLGLEDADWTQGLPWRFE [TEX19]",
    "protein stability index": 3.34
  }
]

For each of the items listed, what is its protein stability index?
1. ISEKLTLLPTLYEIHSKTTAYSRL [RNF180]
2. EASRLNIERMKQIYQQLSRYRGLG [CRY1]
3. SAEWFITAVGAILAGGLCVGIYAT [ACSBG2]
4. YHYGVASCEACKAFFKRTIQGNIE [ESRRG]
5. DPERRPSAMALVKHSVLLSASRKS [WEE1]

Result:
1. 2.51
2. 2.48
3. 3.53
4. 2.43
5. 4.15

###

Assay: protein stability index of a GFP-peptide fusion (GPS, HEK-293T) (PSI 1-6); higher = more stable
Settings: treatment: MLN4924 1 uM, 8 h; c terminus: a fixed tail appended
Task for the reader: assign each of the following sequences its reported protein stability index.
Give bare numbers.

Use the examples below as a reference point.
[
  {
    "sequence.record": "KVEQAKKPSFQSGGRRRPPASSRN [RBMY1A1]",
    "protein stability index": 4.73
  },
  {
    "sequence.record": "LHNLLLHQEGAKMAVRLAGGLQKM [CTNNB1]",
    "protein stability index": 2.36
  },
  {
    "sequence.record": "SCYKGHREIARYLLEQGAQVNRRS [FEM1A]",
    "protein stability index": 3.11
  },
  {
    "sequence.record": "GSNRSGSDRRKEKDPKAGDSKSGG [DVL3]",
    "protein stability index": 5.47
  },
  {
    "sequence.record": "CTGITRLQRWCRAKHMGLEPPPEV [POLD4]",
    "protein stability index": 2.96
  },
  {
    "sequence.record": "DPSGKGKGKAGRVDLVDESGYVSG [TPPP]",
    "protein stability index": 5.27
  },
  {
    "sequence.record": "NWKETLVFPPEVPISEKAKDLILR [STK38L]",
    "protein stability index": 3.28
  },
  {
    "sequence.record": "GKDAKTTNGHGGEAAEGKSLGSAL [TRIM29]",
    "protein stability index": 5.27
  }
]

Batch: protein stability index for all items listed.
1. TPAITVSNSCPAELPNIKREISET [TFE3]
2. DVLNDAIFDEDHDEMVIVKDIDMF [GCH1]
3. KEKWWDGQRDRKAEHWKHKKEESG [PBXIP1]
4. SGSGKSGGYGFGRGRASGFAGSMF [KRT71]
5. ELVKSGVLGADGVCMTFMKQIAGG [INTS3]
6. IFLFQDILVLTRPVTRNERHSYQV [NET1]
7. TWEHSNLEVNKPKNRYANVIAYDH [PTPRD]

Result:
1: 4.86; 2: 3.62; 3: 4.66; 4: 2.69; 5: 2.49; 6: 2.27; 7: 3.02

Can you give me protein stability index for all of these, one by one?
1. NVNSNLITWNRVVLLHGPPGTGKT [TRIP13]
2. RSHENKLRQLTAELAEHRCHPVER [PSD2]
3. QNCTDEGEREAIQKSVTRSCLLEE [POP5]

Result:
[2.53, 4.02, 5.3]

// input: 4 sequences below; output: protein stability index for each
1. VNAKDNMWLTPLHRAVASRSEEAV [ANKRD44]
2. DPLLLILSFLDYRDLINCCYVSRR [FBXO3]
3. KKKCLEWLLNNLMTHQNVELFKEL [GMCL1]
4. MLEKMDLKEFDLDALLGIDDLETM [ATF4]

Result:
1. 4.02
2. 3.05
3. 2.83
4. 3.87

Could I get protein stability index for every one of these entries?
1. SYQKPKEVVVAESELQKELKKVKT [DPCD]
2. EGPMEEEEAQPMAAPEGKRSLANG [EID1]

Result:
5.25
5.58

Below are 2 sequences. Give each one its protein stability index.
1. YLGLVRTHINAVVAKIQAKIPGAK [RTN1]
2. KYKCLLQQLYYTEADYEDDSKIAF [IQUB]

Result:
1. 2.06
2. 2.02

Need protein stability index for each of these sequences.
1. GGADIIVIKYNVNDKFSFHEVKDN [RHOBTB3]
2. LDTVEEVLSVSKILHIPQVTKLCV [KLHL14]
3. RERADIGGLMARPEYREWNPELIK [FAM107A]
4. QAFLDELESSDLPVALLLAQHKDR [MNAT1]
5. LSRKVAELVHFLLLKYRAREPVTK [MAGEA3]

Result:
2.09
2.79
3.8
3.49
2.44

###

Assay: protein stability index of a GFP-peptide fusion (GPS, HEK-293T) (PSI 1-6); higher = more stable
Conditions: treatment: DMSO; c terminus: a fixed tail appended
Class t: protein stability index at least 4. Class f: protein stability index below 4.

Problem: Tell me whether protein stability index is at least 4 here: VQELCKQLHAKIDAAEEEKYDMEV [TNNI2]
Result: t

Problem: Form field: protein stability index at least 4? Entry: MNLHVYISEHEHFTDFNATSALFW [CLPTM1]
Result: f

Problem: Has ELVKSGVLGADGVCMTFMKQIAGG [INTS3] a recorded protein stability index greater than or equal to 4?
Result: f

Problem: // inclusive: protein stability index at least 4? input: GGGISCVLQDGCVFEKAGVSISVV [CPOX]
Result: f

Problem: Has LVPFVGKVHIGYLPNKQVLGLSKL [GCH1] a recorded protein stability index greater than or equal to 4?
Result: f

Problem: Please tell me: is the sequence GDSFSHSSNRIRHLRTHTGERPYK [ZNF263] at or over 4 in terms of protein stability index?
Result: t

###

Assay: protein stability index of a GFP-peptide fusion (GPS, HEK-293T) (PSI 1-6); higher = more stable
Settings: treatment: MLN4924 1 uM, 8 h; c terminus: a fixed tail appended
measurement.name: protein stability index
Give bare numbers.

[
  {
    "sequence.record": "LEAVLHCHQMGVVHRDLKPENLLL [CAMK2B]",
    "measurement.name": "protein stability index",
    "result.number": 2.15
  }
]

Give measured protein stability index for every item shown.
1. DKKKELQELNELFKPVVAAQKISK [ZC3H15]
2. QEITEQQDIAQEISEAFSQRVGFG [CHMP4C]
3. EQNIIPSATNVTCYYQPAPYVSDG [TENT5C]
4. LVVIQQPSLDSRQRLDYEREIQPT [SPRY1]
5. RNQGNFSVVGTVLAATQAEKAVAN [ZC2HC1C]
6. IQAINGESTELMTHLEAQNRIKGC [PDLIM4]
7. HDGKPSEGSYRIHVLHHGTGKWYE [USP39]
8. TMARIRRVYVSGLMKGGADLFVEN [APMAP]

Result:
1. 4.43
2. 4.77
3. 3.63
4. 3.1
5. 4.24
6. 4.15
7. 2.88
8. 2.07

Batch request: protein stability index for each of the following sequences.
1. ENCERREAFWAEWKDLTLSTRPEE [TCAP]
2. FMKYVDSNLCCFIPGKVIDEIYRV [FBXO28]
3. MMELGSRSRGASQKKQKLEQKAAG [FATE1]
4. NQRAMDLYKALGAQDLTEAEGWHF [SAT2]
5. HPAATALHAELCQAGSSQGLSLCQ [LPCAT4]

Result:
4.68
2.65
4.87
3.14
4.13

Could you tell me protein stability index for each of these sequences? They are listed below.
1. IHAYNLGTNAWEEIATKPHEKIGF [KLHDC10]
2. FVEDSFDPNINPTIGASFMTKTVQ [RAB22A]
3. LTEASAHSHPPEIKDQGGAGEGLV [MAP2]
4. RRLLEGEDAHLTQYKKEPVTTRQV [KRT17]
5. HGRARIARLMLESEYRSDIINAKS [ASB7]
6. MLGLALGGLVVSAASLAGCLGALC [TSPAN10]

Result:
2.57
3.34
5.56
4.66
3.18
3.04

Would you mind listing protein stability index for each of the following sequences?
1. AVEISDHPGEHEVGEPEFHYIAGA [CPXM2]
2. TAHADEFDCPSELQHTQELFPQWH [STEAP1]
3. VEYEERESEFDIEDEDKSEPEQTG [RBBP5]
4. NFYYFSLIPKTWYSAEQFCVSRNS [CD207]
5. TGWARKGLGNTWPGASGSAQSLDR [ATP23]
6. SCQEVLRKGCLRFQLPERGSRLCL [DFFB]

Result:
5.17
3.84
5.54
2.3
4.09
2.4
